Target: T1, rat GALR2 (clone 27A) (rat, UniProt O08726 1-372)
T1 construct: Full-length 372-amino-acid receptor expressed in transiently transfected COS-7 cells; also called pCI.neo/27A
T1 sequence: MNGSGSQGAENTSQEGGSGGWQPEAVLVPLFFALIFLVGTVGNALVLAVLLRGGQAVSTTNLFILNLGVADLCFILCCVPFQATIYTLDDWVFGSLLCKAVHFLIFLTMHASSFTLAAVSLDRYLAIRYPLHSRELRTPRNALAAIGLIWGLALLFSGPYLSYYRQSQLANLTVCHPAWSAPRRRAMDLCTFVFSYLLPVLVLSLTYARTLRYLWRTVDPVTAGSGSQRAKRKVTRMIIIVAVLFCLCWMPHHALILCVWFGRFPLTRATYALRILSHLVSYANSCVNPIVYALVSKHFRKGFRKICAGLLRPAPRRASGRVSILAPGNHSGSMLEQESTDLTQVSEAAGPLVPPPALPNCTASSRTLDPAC
Assay: competition of 125I-human galanin binding, COS-7 membranes
Observation type: pIC50
Would you please state pIC50, meaning minus log10 of the concentration in mol/L, as a bare number?

input: Data request, read-out pIC50, for WTLNSAGYLLGPHAIDNHRSFSDKHGLT (peptide, UniProt P10683 34-61, looked up, range 2-29; also called rGAL(2-29)) [rat Gal (2-29)]
output: 8.54

meta.source: patent US6337206B1
